- system-under-test: Prostaglandin E2 receptor EP4 subtype (Homo sapiens)
- Sequence (P35408 whole entry): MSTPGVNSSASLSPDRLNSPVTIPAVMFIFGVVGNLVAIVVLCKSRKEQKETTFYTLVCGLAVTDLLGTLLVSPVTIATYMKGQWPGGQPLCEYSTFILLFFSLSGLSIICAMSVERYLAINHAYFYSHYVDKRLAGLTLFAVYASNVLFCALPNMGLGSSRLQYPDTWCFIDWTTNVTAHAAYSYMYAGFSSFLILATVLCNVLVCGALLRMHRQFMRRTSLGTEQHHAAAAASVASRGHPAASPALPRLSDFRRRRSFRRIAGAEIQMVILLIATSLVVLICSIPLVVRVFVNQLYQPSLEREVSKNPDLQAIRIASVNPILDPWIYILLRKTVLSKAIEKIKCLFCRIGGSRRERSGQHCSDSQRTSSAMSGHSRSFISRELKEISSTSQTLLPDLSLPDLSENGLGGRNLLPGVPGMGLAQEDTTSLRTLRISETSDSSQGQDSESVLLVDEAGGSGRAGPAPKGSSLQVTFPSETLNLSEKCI
- protocol-details: Inhibition of human EP4 transfected in human HEK293 cells assessed as reduction in PGE2-induced cAMP level incubated for 15 mins followed by PGE2 stimulation and measured every 2 mins for 30 mins by GloSensor cAMP Assay
readout: pIC50
Reminder that pIC50 means the negative base-10 logarithm of the concentration expressed in mol/L.

## Task So what pIC50 did `C/C=C/c1nnn(Cc2ccc(C(F)(F)F)cc2)c1C(=O)N[C@@H](C)c1ccc(C(=O)O)cc1` get with Prostaglandin E2 receptor EP4 subtype (Homo sapiens)?
## Result 7.73

* * *

Task for the reader: assign each of the following compounds its reported inhibition at 0.5 h, 20 µM.
- system-under-test: CYP1A2 (Homo sapiens, UniProt P05177)
- Sequence (P05177 whole entry): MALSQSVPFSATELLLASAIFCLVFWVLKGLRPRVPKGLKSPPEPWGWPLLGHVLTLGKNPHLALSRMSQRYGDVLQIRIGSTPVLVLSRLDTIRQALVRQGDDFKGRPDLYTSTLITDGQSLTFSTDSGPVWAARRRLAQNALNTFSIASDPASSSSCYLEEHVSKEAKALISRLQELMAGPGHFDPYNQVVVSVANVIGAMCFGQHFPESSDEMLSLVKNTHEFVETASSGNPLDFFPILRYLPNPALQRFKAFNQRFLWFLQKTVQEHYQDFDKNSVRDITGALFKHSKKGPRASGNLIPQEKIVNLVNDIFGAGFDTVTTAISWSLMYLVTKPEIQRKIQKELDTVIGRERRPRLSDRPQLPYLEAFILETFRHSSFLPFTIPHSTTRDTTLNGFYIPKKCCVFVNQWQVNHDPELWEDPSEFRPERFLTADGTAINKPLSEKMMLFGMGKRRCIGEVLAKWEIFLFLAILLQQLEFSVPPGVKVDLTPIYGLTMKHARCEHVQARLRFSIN
- protocol-details: Inhibition of CYP1A2 in human liver microsomes at 20 uM using phenacetin as substrate incubated for 30 mins by HPLC analysis relative to control
- Assay type: ADME
- condition-label: probe phenacetin
Unit % implied. Number only.

## Task So what inhibition at 0.5 h, 20 µM did `C[C@H](NC(=O)c1c(C(F)F)nn(C)c1Oc1cccc(C(F)(F)F)c1)c1ccc(C(=O)O)cc1` get with CYP1A2 (Homo sapiens, UniProt P05177)?
## Result 41

## Task So what inhibition at 0.5 h, 20 µM did `C/C=C/c1nnn(Cc2ccc(C(F)(F)F)cc2)c1C(=O)N[C@@H](C)c1ccc(C(=O)O)cc1` get with CYP1A2 (Homo sapiens, UniProt P05177)?
## Result 27

## Task So what inhibition at 0.5 h, 20 µM did `CC#Cc1nnn(Cc2ccc(C(F)(F)F)cc2)c1C(=O)N[C@@H](C)c1ccc(C(=O)O)cc1` get with CYP1A2 (Homo sapiens, UniProt P05177)?
## Result 82

## Task So what inhibition at 0.5 h, 20 µM did `C[C@H](NC(=O)c1c(-c2ccccc2)nnn1CCOc1cccc(C(F)(F)F)c1)c1ccc(C(=O)O)cc1` get with CYP1A2 (Homo sapiens, UniProt P05177)?
## Result 30

## Task So what inhibition at 0.5 h, 20 µM did `C[C@H](NC(=O)c1c(-c2ccsc2)nnn1Cc1ccc(C(F)(F)F)cc1)c1ccc(C(=O)O)cc1` get with CYP1A2 (Homo sapiens, UniProt P05177)?
## Result 21

* * *

Task for the reader: assign each of the following compounds its reported Vd at 24 h.
- protocol-details: Apparent volume of distribution in BALB/c mouse at 1 mg/kg, iv measured upto 24 hrs by LC-MS/MS analysis
- condition-label: in vivo
Unit L/kg implied. Number only.

## Task Vd at 24 h lookup needed for `C/C=C/c1nnn(Cc2ccc(C(F)(F)F)cc2)c1C(=O)N[C@@H](C)c1ccc(C(=O)O)cc1` , thanks.
## Result 10.2

## Task Vd at 24 h lookup needed for `C[C@H](NC(=O)c1c(-c2ccsc2)nnn1Cc1ccc(C(F)(F)F)cc1)c1ccc(C(=O)O)cc1` , thanks.
## Result 14.5

* * *

- system-under-test: Cytochrome P450 3A4 (Homo sapiens)
- Sequence (P08684 whole entry): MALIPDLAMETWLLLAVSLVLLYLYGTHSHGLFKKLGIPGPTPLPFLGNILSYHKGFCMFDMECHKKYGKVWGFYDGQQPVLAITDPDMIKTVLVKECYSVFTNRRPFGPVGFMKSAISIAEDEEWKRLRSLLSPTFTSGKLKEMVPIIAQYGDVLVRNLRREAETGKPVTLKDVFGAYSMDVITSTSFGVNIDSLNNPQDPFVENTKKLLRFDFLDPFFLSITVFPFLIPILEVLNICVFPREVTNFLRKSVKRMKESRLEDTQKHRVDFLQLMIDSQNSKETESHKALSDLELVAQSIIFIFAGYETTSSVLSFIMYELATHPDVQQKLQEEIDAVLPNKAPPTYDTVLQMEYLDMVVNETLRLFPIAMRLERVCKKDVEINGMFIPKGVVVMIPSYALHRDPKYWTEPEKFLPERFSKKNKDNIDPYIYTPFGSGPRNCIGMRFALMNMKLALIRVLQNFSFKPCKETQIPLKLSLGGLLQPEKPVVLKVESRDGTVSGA
- protocol-details: Inhibition of CYP3A4 in human liver microsomes at 20 uM using testosterone as substrate incubated for 60 mins by HPLC analysis
- Assay type: ADME
- condition-label: 1 h
readout: inhibition (INH)

Some solved entries appear below for comparison.
>>> df
                                   compound                   system_under_test           readout  measured_result
0  C[C@H](NC(=O)c1c(-c2ccccc2)nnn1CCOc1cccc(C(F)(F)F)c1)c1ccc(C(=O)O)cc1  Cytochrome P450 3A4 (Homo sapiens)  inhibition (INH)       Not Active
1  CC#Cc1nnn(Cc2ccc(C(F)(F)F)cc2)c1C(=O)N[C@@H](C)c1ccc(C(=O)O)cc1  Cytochrome P450 3A4 (Homo sapiens)  inhibition (INH)       Not Active
2  C/C=C/c1nnn(Cc2ccc(C(F)(F)F)cc2)c1C(=O)N[C@@H](C)c1ccc(C(=O)O)cc1  Cytochrome P450 3A4 (Homo sapiens)  inhibition (INH)       Not Active
3  C[C@H](NC(=O)c1c(C(F)F)nn(C)c1Oc1cccc(C(F)(F)F)c1)c1ccc(C(=O)O)cc1 [PALUPIPRANT]  Cytochrome P450 3A4 (Homo sapiens)  inhibition (INH)       Not Active

## Task So what inhibition (INH) did `C[C@H](NC(=O)c1c(-c2ccsc2)nnn1Cc1ccc(C(F)(F)F)cc1)c1ccc(C(=O)O)cc1` get with Cytochrome P450 3A4 (Homo sapiens)?
## Result Not Active

* * *

- protocol-details: in vivo
- condition-label: BALB/c, mouse, iv, 1 mg/kg
readout: AUC(0-inf) at 24 h

## Task AUC(0-inf) at 24 h lookup needed for `C/C=C/c1nnn(Cc2ccc(C(F)(F)F)cc2)c1C(=O)N[C@@H](C)c1ccc(C(=O)O)cc1` , thanks.
## Result 575 ng·h/mL

## Task AUC(0-inf) at 24 h lookup needed for `C[C@H](NC(=O)c1c(-c2ccsc2)nnn1Cc1ccc(C(F)(F)F)cc1)c1ccc(C(=O)O)cc1` , thanks.
## Result 332 ng·h/mL

* * *

Task for the reader: assign each of the following compounds its reported microsomal CLint at 1 h, 10 µM.
- protocol-details: in vitro
- condition-label: CD1, mouse, liver microsomes
Unit µL/min/mg implied. Number only.

## Task microsomal CLint at 1 h, 10 µM lookup needed for O=C(O)Cc1ccccc1Nc1c(Cl)cccc1Cl [DICLOFENAC] , thanks.
## Result 25.8

## Task microsomal CLint at 1 h, 10 µM lookup needed for C[C@]12CC[C@H]3[C@@H](CCC4=CC(=O)CC[C@@]43C)[C@@H]1CC[C@@H]2O [TESTOSTERONE] , thanks.
## Result 479

* * *

Task for the reader: assign each of the following molecules its reported IC50.
Unit nM implied. Number only.

## Task So what IC50 did `C[C@H](NC(=O)c1c(C(F)(F)F)nnn1Cc1ccc(C(F)(F)F)cc1)c1ccc(C(=O)O)cc1` get with Prostaglandin E2 receptor EP4 subtype (Homo sapiens, UniProt P35408)?
## Result 225

## Task So what IC50 did `CC#Cc1nnn(Cc2ccc(C(F)(F)F)cc2)c1C(=O)N[C@@H](C)c1ccc(C(=O)O)cc1` get with Prostaglandin E2 receptor EP4 subtype (Homo sapiens, UniProt P35408)?
## Result 32

## Task So what IC50 did `C[C@H](NC(=O)c1c(-c2ccccc2)nnn1Cc1ccc(C(F)(F)F)cc1)c1ccc(C(=O)O)cc1` get with Prostaglandin E2 receptor EP4 subtype (Homo sapiens, UniProt P35408)?
## Result 8.5

## Task So what IC50 did `COc1ccc(Cn2nnc(-c3ccccc3)c2C(=O)N[C@@H](C)c2ccc(C(=O)O)cc2)cc1` get with Prostaglandin E2 receptor EP4 subtype (Homo sapiens, UniProt P35408)?
## Result 9.3

## Task So what IC50 did `C[C@H](NC(=O)c1c(C2CCC2)nnn1Cc1ccc(C(F)(F)F)cc1)c1ccc(C(=O)O)cc1` get with Prostaglandin E2 receptor EP4 subtype (Homo sapiens, UniProt P35408)?
## Result 75.3

## Task So what IC50 did `C/C=C/c1nnn(Cc2ccc(C(F)(F)F)cc2)c1C(=O)NC1(c2ccc(C(=O)O)cc2)CC1` get with Prostaglandin E2 receptor EP4 subtype (Homo sapiens, UniProt P35408)?
## Result 13.9

## Task So what IC50 did `C/C=C/c1nnn(Cc2ccc(C(F)(F)F)cc2)c1C(=O)N[C@@H](C)c1ccc(C(=O)O)cc1` get with Prostaglandin E2 receptor EP4 subtype (Homo sapiens, UniProt P35408)?
## Result 6.1

## Task So what IC50 did `C[C@H](NC(=O)c1c(-c2ccc(F)cc2)nnn1Cc1ccc(C(F)(F)F)cc1)c1ccc(C(=O)O)cc1` get with Prostaglandin E2 receptor EP4 subtype (Homo sapiens, UniProt P35408)?
## Result 57.9

## Task So what IC50 did `C[C@H](NC(=O)c1c(C2CCCCC2)nnn1Cc1ccc(C(F)(F)F)cc1)c1ccc(C(=O)O)cc1` get with Prostaglandin E2 receptor EP4 subtype (Homo sapiens, UniProt P35408)?
## Result 161

## Task So what IC50 did `C[C@H](NC(=O)c1c(-c2ccoc2)nnn1Cc1ccc(C(F)(F)F)cc1)c1ccc(C(=O)O)cc1` get with Prostaglandin E2 receptor EP4 subtype (Homo sapiens, UniProt P35408)?
## Result 45.6

## Task So what IC50 did `C[C@H](NC(=O)c1c(C2=CCCCC2)nnn1Cc1ccc(C(F)(F)F)cc1)c1ccc(C(=O)O)cc1` get with Prostaglandin E2 receptor EP4 subtype (Homo sapiens, UniProt P35408)?
## Result 183
